Listed next: entries and their corresponding Vd/F.
- assay_text: In vivo pharmacokinetic study of VEN and ODV in rats with or without vonoprazan
- Design: species or system Sprague-Dawley rats
- cond: male, Sprague-Dawley, rat, plasma, po, 20 mg/kg, Vz/F, rat plasma; VEN 20 mg/kg oral; + vonoprazan 20 mg/kg oral, 7 days

- molecule: "CN(C)CC(c1ccc(O)cc1)C1(O)CCCCC1 (centres unmarked)"
  Vd/F, L/kg: 142
- molecule: "COc1ccc(C(CN(C)C)C2(O)CCCCC2)cc1 (centres unmarked)"
  Vd/F, L/kg: 19.9

----------
Measured half-life of individual entries
- assay_text: In vivo pharmacokinetic study of VEN and ODV in rats with or without vonoprazan
- Design: species or system Sprague-Dawley rats
- cond: male, Sprague-Dawley, rat, plasma, po, 20 mg/kg, t1/2z, rat plasma; VEN 20 mg/kg oral; + vonoprazan 20 mg/kg oral, 7 days
readout_type: half-life

- compound: "CN(C)CC(c1ccc(O)cc1)C1(O)CCCCC1 (centres unmarked) [ODV, O-desmethylvenlafaxine]"
  result: "2.43 h"
- compound: "COc1ccc(C(CN(C)C)C2(O)CCCCC2)cc1 (centres unmarked) [VEN, Venlafaxine]"
  result: "1.28 h"
